Target: human TLR7 (Homo sapiens)
Construct: host or cells: HEK-Blue cells
Sequence (Q9NYK1 27-1049): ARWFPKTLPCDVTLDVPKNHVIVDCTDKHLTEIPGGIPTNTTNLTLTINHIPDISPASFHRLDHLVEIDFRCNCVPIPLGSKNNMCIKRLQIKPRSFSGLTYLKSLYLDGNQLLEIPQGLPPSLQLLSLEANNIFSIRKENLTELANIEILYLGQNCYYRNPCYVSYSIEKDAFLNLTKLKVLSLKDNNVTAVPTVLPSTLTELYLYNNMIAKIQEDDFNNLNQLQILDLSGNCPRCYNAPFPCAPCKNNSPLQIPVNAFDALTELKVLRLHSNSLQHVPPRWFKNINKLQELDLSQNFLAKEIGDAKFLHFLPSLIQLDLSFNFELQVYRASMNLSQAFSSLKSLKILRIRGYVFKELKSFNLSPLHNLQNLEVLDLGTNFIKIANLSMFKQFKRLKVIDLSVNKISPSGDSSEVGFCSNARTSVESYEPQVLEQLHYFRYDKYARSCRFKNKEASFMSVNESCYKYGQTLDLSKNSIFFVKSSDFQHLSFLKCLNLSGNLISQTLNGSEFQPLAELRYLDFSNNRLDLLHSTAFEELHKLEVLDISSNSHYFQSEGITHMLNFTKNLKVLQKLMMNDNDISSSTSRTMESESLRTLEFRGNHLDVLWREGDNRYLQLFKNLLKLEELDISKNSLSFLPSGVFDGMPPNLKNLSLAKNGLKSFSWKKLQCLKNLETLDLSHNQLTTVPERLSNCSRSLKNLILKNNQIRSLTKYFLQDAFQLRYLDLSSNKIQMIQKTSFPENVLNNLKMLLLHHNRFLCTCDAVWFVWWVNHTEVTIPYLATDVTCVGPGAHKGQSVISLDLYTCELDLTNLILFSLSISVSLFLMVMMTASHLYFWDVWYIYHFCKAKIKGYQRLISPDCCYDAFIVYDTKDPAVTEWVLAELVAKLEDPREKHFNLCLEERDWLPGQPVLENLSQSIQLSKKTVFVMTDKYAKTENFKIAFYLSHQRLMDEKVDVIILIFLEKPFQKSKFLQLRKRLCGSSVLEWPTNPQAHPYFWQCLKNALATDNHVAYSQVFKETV
Assay: TLR7 inhibition reporter assay (HEK-Blue cells, SEAP reporter, gardiquimod stimulation)
Type: cell-based
Conditions: HEK-Blue cells overexpressing human TLR7, SEAP reporter, gardiquimod 7.5 μM; read-out: TLR7 IC50
Would you mind telling me the reported pIC50 of each entry?
Give bare numbers, as −log10 of the molar value.

Take a look at these entries with their results.
* Cc1cc(-c2[nH]c3sc(C4CCC(NCC5(C)COC5)CC4)nc3c2C(C)C)cn2ncnc12 (single isomer, unassigned) [Example 135] | 8.17
* Cc1c(-c2[nH]c3sc(C(=O)N4CCCC4)nc3c2C(C)C)cn2ncnc2c1C | 7.24
* Cc1c(-c2[nH]c3sc(C(=O)N4CCN(C(C)C)CC4)nc3c2C(C)C)cn2ncnc2c1C | 7.94

Here is another compound to look at.
Consider the compound Cc1c(-c2[nH]c3sc(C4CCC(NC(C)C)CC4)nc3c2C(C)C)cn2ncnc2c1C (single isomer, unassigned) [Example 194] and give its measured pIC50.
9.05

* * *

Target: human TLR8 (Homo sapiens, UniProt Q9NR97)
Construct: host or cells: HEK-Blue cells
Sequence (Q9NR97 27-1041): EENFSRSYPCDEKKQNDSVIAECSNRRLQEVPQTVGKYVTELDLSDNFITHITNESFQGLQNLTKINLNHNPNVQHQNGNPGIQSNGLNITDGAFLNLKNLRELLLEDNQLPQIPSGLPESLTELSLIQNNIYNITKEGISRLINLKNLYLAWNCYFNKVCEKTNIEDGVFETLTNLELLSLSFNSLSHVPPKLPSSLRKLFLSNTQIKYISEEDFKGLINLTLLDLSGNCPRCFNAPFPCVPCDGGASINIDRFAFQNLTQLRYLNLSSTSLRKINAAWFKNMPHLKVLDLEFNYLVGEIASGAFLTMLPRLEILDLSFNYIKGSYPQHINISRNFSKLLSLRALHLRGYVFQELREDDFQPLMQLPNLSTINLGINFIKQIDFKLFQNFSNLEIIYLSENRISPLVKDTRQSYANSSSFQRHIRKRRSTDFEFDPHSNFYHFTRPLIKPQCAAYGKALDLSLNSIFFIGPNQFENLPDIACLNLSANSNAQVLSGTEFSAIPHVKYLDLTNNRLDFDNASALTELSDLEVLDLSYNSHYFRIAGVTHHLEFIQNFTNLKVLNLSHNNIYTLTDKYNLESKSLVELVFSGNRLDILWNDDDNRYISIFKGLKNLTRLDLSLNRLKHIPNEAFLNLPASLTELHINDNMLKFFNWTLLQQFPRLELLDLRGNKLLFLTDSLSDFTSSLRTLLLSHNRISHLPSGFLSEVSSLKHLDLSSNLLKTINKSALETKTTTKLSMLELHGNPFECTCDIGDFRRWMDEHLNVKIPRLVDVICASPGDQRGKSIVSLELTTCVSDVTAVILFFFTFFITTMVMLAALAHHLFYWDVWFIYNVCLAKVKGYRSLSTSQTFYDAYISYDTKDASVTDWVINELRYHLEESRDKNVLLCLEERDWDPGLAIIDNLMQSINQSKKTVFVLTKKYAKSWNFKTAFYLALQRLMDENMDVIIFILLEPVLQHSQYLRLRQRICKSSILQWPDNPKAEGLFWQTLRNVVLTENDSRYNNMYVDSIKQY
Experiment: TLR8 inhibition reporter assay (HEK-Blue cells, SEAP reporter, R848 stimulation)
Assay type: cell-based
Details: HEK-Blue cells overexpressing human TLR8, SEAP reporter, R848 15.9 μM; read-out: TLR8 IC50
Response field class: enum, chosen by comparing IC50 against LOW (below 3 nM), MEDIUM (3 nM to below 20 nM), HIGH (20 nM or more)

// below: answered compounds
• COc1cc(-c2[nH]c3sc(C4CCC(NC5(C)COC5)CC4)nc3c2C(C)C)cn2ncnc12 (single isomer, unassigned) [Example 71] = MEDIUM
• Cc1c(-c2[nH]c3sc(C4CCC(N5CCNC(=O)C5)CC4)nc3c2C(C)C)cn2ncnc2c1C (single isomer, unassigned) [Example 220] = MEDIUM
• Cc1c(-c2[nH]c3sc(C4CCC(NCC5(S(C)(=O)=O)CC5)CC4)nc3c2C(C)C)cn2ncnc2c1C (single isomer, unassigned) [Example 214] = LOW
• COc1cc(-c2[nH]c3sc(C4CCN(CC(C)(C)O)CC4)nc3c2C(C)C)cn2ncnc12 = MEDIUM
• Cc1c(-c2[nH]c3sc(C4CCC(N5CC(F)(F)C5)CC4)nc3c2C(C)C)cn2ncnc2c1C (single isomer, unassigned) [Example 219] = HIGH

Looking at Cc1c(-c2[nH]c3sc(C4CCC(N(C)C(C)C)CC4)nc3c2C(C)C)cn(C)c(=O)c1C (single isomer, unassigned) [Example 262] , which class would you pick?
MEDIUM

Please indicate the class for COc1cc(-c2[nH]c3cc(C4CCNCC4)sc3c2C(C)C)cn2ncnc12 based on its IC50.
MEDIUM

* * *

Target: human TLR8 (Homo sapiens)
Construct: host or cells: HEK-Blue cells
Assay: TLR8 inhibition reporter assay (HEK-Blue cells, SEAP reporter, R848 stimulation)
Format: cell-based
Details: HEK-Blue cells overexpressing human TLR8, SEAP reporter, R848 15.9 μM; read-out: TLR8 IC50
PROPERTY_MEASURED: pIC50
One number for each entry, as −log10 of the molar value.

A selection of reference data follows.
• Cc1c(-c2[nH]c3sc(C4CCC(N5CC(O)C5)CC4)nc3c2C(C)C)cn(C)c(=O)c1C (single isomer, unassigned) [Example 263] = 8.35
• Cc1c(-c2[nH]c3sc(C4CCC(N5CC(F)C5)CC4)nc3c2C(C)C)cn2ncnc2c1C (single isomer, unassigned) [Example 226] = 9.39

Alright, here's another compound for you.
What does the record list as pIC50 for Cc1c(-c2[nH]c3sc(C4CCC(N(C)CC(C)C)CC4)nc3c2C(C)C)cn2ncnc2c1C (single isomer, unassigned) [Example 229] ?
8.43

Origin of values: patent US20230139171A1
